Tested on: HIV Env-mediated cell-cell fusion, luminescence reporter
PROTOCOL DETAILS: HIV Env-driven cell-cell fusion inhibition, SAR follow-up, luminescence reporter (AID 435029)
Active and inactive are the calls of the source. The rule behind the calls is not given here.
Possible outcomes: yes (1) = active, no (0) = inactive

CCOC(=O)c1sc(N2C(=O)C(O)=C(C(=O)c3ccc(C)o3)C2c2cccc([N+](=O)[O-])c2)nc1C (stereo not given) = yes (1)
COc1cc(C=NNc2ccc(Cl)c(C(=O)O)c2)ccc1OC(=O)c1ccccc1F = yes (1)
Cc1c2c(=O)n(-c3nc4ccccc4s3)nc-2cc(O)n1Cc1ccccc1 = yes (1)
O=C(O)c1cc(NN=Cc2ccc(-c3ccccc3)cc2)ccc1Cl = yes (1)
CC(C)(C)c1cc(-c2csc(Nc3ccccc3)[n+]2Cc2ccc(C(=O)O)cc2)cc(C(C)(C)C)c1O = yes (1)
COc1cc(C=NNc2ccc(Cl)c(C(=O)O)c2)ccc1OC(=O)c1ccc(F)cc1 = yes (1)
COc1ccc(C(=O)Oc2ccc(C=NNc3ccc(Cl)c(C(=O)O)c3)cc2OC)cc1 = yes (1)
N#C/C(=C\c1ccc(O)c([N+](=O)[O-])c1)c1nc2ccccc2s1 = yes (1)
O=C(N/N=C/c1c(O)n(C2CCCCC2)c(=S)[nH]c1=O)c1ccccc1O = yes (1)
O=C(O)c1ccccc1N=Nc1c(O)[nH]c2ccc([N+](=O)[O-])cc12 = no (0)
